Biological target: Melanin-concentrating hormone receptor 1 (Homo sapiens, UniProt Q99705)
Sequence (Q99705 whole entry, looked up): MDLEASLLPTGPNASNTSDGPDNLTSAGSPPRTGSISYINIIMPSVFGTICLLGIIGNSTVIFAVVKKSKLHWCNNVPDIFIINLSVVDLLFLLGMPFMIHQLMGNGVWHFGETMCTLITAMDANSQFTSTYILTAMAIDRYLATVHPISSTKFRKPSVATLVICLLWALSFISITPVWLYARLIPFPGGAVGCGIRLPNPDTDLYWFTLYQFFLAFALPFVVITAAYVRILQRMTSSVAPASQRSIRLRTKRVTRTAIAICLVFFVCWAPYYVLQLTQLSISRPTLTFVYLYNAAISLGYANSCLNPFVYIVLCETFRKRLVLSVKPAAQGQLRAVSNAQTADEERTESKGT
Experiment: Inhibitory activity against mutated constitutively activated human Melanin concentrating hormone receptor 1 (CA-MCH-R1) stably expressed in HEK293 cells using [125I](Phe13, Tyr19) MCH
Assay type: cell-based
Quantity Measured: log10 of IC50 (log10 of the value in nM)
Note the log scale: values are log10 of IC50 expressed in nM.

Nc1nc(NC[C@H]2CC[C@H](CNS(=O)(=O)c3cccc4ccccc34)CC2)nc2ccccc12 [CGP-71683A]; 3.54
Nc1nc(NCC2CCC(CNS(=O)(=O)c3ccc(Br)cc3OC(F)(F)F)CC2)nc2ccccc12 (trans isomer); 3.28
CN(C)c1nc(NC2CCC(NS(=O)(=O)c3ccc(Br)cc3OC(F)(F)F)CC2)nc2ccccc12 (trans isomer); 3.34
CN(C)c1nc(NC2CCC(CNS(=O)(=O)c3ccc(Br)cc3OC(F)(F)F)CC2)nc2ccccc12 (stereo not drawn); 3.18

Now take the following compound into account.
Look up log10 of IC50 for this compound: "CN(C)c1nc(NC2CCN(S(=O)(=O)c3ccc(Br)cc3OC(F)(F)F)CC2)nc2ccccc12"
2.40

----------
This section presents compounds with their documented IC50 values.
Molecular target: Melanin-concentrating hormone receptor 1 (Homo sapiens)
Experiment: Inhibitory activity against mutated constitutively activated human Melanin concentrating hormone receptor 1 (CA-MCH-R1) stably expressed in HEK293 cells using [125I](Phe13, Tyr19) MCH
Type: cell-based

CC(C)S(=O)(=O)NCC1CCC(CNc2nc(N(C)C)c3ccccc3n2)CC1 (trans isomer); > 10 µM

// lookup IC50 for CN(C)c1nc(NCC2CCC(CNS(C)(=O)=O)CC2)nc2ccccc12 (stereo not drawn)
> 10 µM

Which IC50 value belongs to O=S(=O)(NCC1CCC(CNc2ncc3ccccc3n2)CC1)c1ccc(Br)cc1OC(F)(F)F (trans isomer) ?
> 10 µM
